Attribution: patent US11180488B2

System: human LPA1 (Homo sapiens, UniProt Q92633)
Construct: expressed in transfected cells; host or cells: Chinese hamster ovary (CHO) cells
Sequence (Q92633 whole entry): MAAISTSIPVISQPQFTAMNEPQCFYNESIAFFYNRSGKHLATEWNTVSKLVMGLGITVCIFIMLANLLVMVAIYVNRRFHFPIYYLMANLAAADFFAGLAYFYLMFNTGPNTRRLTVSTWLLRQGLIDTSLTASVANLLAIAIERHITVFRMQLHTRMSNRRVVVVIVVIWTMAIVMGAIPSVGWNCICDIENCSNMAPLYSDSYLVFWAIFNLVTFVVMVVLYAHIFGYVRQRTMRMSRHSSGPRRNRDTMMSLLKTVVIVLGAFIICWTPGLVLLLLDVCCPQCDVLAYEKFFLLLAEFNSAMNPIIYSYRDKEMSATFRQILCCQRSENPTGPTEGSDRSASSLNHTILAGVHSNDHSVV
Method: LPA1 functional antagonist assay (LPA-induced calcium flux)
Assay type: cell-based
Experimental Parameters: CHO cells overexpressing human LPA1; calcium flux induced by 10 nM LPA; read-out: hLPA1 IC50
Method: The effectiveness of compounds of the present invention as LPA1 inhibitors can be determined in an LPA1 functional antagonist assay as follows: Chinese hamster ovary cells overexpressing human LPA1 were plated overnight (15,000 cells/well) in poly-D-lysine coated 384-well microplates (Greiner bio-one, Cat #781946) in DMEM/F12 medium (Gibco, Cat #11039). […] IC50 values were determined by fitting data to a 4-parameter logistic equation (GraphPad Prism, San Diego Calif.).
Decide using IC50 alone. Strictly below 20 nM: Condition met. Equal to or above 20 nM: Condition not met.

Cc1nc(-c2onc(C)c2COC(=O)N(C)C2CCCC2)ccc1O[C@H]1CCC[C@H](C(=O)O)C1 | Condition met
Cc1noc(-c2ccc(O[C@@H]3CCC[C@@H](C(=O)O)C3)cc2)c1COC(=O)N(C)CCC1CCCC1 | Condition not met
Cc1nc(-c2onc(C)c2COC(=O)N(C)CCC2CC2)ccc1O[C@H]1CCC[C@H](C(=O)O)C1 | Condition met
Cc1noc(-c2ccc(O[C@@H]3CCC[C@@](F)(C(=O)O)C3)cc2)c1COC(=O)N(C)C1CCCC1 (racemic) [Example 3] | Condition met
Cc1noc(-c2ccc(O[C@H]3CCC[C@H](C(=O)O)C3)cn2)c1COC(=O)N[C@H](C)C1CC1 | Condition not met

Check if IC50 falls below 20 nM for `Cc1noc(-c2ccc(O[C@H]3CCC[C@H](C(=O)O)C3)cn2)c1COC(=O)N(C)CCC1CC1` .
Condition met
